assay: qHTS assay for small molecule agonists of the antioxidant response element (ARE) signaling pathway (AID 651741); details: HepG2 ARE-bla reporter, beta-lactamase FRET ratio, 16 h; series mostly up to 96 µM
Records with an inconclusive call do not appear. Activity calls are given as the source filed them. Calls come from the whole dose curve; as a rule, active = well fitted activation curve with a large enough effect in the signal ratio; inconclusive = small, poorly fitted or top-dose-only effect, or effect the other way, or a change in a side signal; inactive = flat fitted curve, though single readings scatter; the % refers to the signal ratio.
In this exercise, the only acceptable responses are active, inactive

Consider the following illustrative entries.
CNC(=O)Oc1cccc2c1OC(C)(C)C2O (stereo not given)
active
CNC(=O)Oc1ccc(N(C)C)c(C)c1
active
C=CC(=O)OCC(CC)(COC(=O)C=C)COC(=O)C=C
active
COP(=O)(OC)SCn1c(=O)oc2cc(Cl)cnc21
active
CNP(=O)(OC)Oc1ccc(C(C)(C)C)cc1Cl (stereo not given)
active

Any idea what this test logged for CC[C@H]1CCCC(O[C@H]2CC[C@H](N(C)C)[C@@H](C)O2)[C@@H](C)C(=O)C2=C[C@@H]3[C@@H](C=C[C@@H]4C[C@@H](O[C@@H]5O[C@@H](C)[C@H](OC)[C@@H](OC)[C@H]5OC)C[C@@H]34)[C@@H]2CC(=O)O1 (stereo not given in full) ? active

----------
molecular target: Estrogen receptor (Homo sapiens) (UniProt P03372); assay: qHTS assay for small molecule agonists of estrogen receptor alpha signaling (AID 588514); details: ER-alpha-UAS-bla HEK293, beta-lactamase ratio, 18 h; series mostly up to 76.8 µM; note: nearly all actives have a fitted effect of over 70% in size
Sequence (P03372 whole entry, looked up): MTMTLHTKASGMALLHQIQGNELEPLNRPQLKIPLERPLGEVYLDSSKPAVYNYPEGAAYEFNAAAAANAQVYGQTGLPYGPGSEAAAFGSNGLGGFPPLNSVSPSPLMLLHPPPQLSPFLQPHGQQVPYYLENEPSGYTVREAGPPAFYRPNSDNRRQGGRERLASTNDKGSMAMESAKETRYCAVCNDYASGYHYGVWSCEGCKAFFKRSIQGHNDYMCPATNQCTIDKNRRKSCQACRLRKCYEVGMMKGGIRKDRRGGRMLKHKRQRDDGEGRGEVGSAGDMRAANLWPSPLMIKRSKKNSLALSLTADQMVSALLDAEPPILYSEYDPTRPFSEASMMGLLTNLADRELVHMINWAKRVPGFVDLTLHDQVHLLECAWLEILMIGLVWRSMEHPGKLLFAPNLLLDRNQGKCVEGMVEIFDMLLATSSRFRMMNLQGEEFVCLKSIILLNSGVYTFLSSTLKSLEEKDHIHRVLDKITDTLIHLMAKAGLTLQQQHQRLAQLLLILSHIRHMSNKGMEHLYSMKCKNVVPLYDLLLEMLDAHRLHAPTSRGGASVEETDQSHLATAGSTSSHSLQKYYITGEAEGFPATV
Results filed as inconclusive are left out. Active and inactive are the calls of the source. Calls come from the whole dose curve.
In this exercise, the only acceptable responses are active, inactive

Consider the following illustrative entries.
COC(=O)NS(=O)(=O)c1ccc(N)cc1
inactive
COCc1cnc(C2=NC(C)(C(C)C)C(=O)N2)c(C(=O)O)c1 (centres undefined)
inactive
O=C(O)C(F)(F)C(F)(F)C(F)(F)C(F)(F)C(F)(F)C(F)(F)C(F)(F)C(F)(F)F
inactive

Any idea what this test logged for `CNC(=O)Oc1cc(C)c(SC)c(C)c1` ? active

----------
biological target: Cytochrome P450 2C19 (Homo sapiens) (UniProt P33261); test: qHTS Assay for Inhibitors and Substrates of Cytochrome P450 2C19 (AID 899); conditions: recombinant CYP2C19, luciferin-H EGE luminescence; series mostly up to 57.1 µM; note: nearly all actives have a fitted effect of over 60% in size
Sequence (P33261 whole entry, looked up): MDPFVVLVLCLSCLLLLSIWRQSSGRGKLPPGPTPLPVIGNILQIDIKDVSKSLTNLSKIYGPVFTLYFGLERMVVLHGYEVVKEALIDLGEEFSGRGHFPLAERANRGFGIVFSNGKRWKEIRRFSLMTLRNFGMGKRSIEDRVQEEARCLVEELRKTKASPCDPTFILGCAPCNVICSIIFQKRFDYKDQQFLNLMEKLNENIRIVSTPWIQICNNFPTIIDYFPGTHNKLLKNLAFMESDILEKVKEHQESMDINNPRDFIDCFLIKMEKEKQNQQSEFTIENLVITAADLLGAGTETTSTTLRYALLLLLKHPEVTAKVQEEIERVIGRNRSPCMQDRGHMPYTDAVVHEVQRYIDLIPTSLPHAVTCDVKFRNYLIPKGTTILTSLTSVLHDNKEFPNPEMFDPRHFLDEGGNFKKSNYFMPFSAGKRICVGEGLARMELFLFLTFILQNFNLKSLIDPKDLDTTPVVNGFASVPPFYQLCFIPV
Results filed as inconclusive are left out. Calls of active or inactive are those of the source. The call rests on the fitted dose curve; in most records, active means well fitted inhibition curve with a large enough effect; inconclusive means small, poorly fitted or top-dose-only effect; inactive means no such curve, though single readings can be large or run the other way.
In this exercise, the only acceptable responses are Y for active, N for inactive

Consider the following illustrative entries.
CN[C@@H](C)[C@@H](O)c1ccccc1
Y
N[C@]1(C(=O)O)CC[C@@H](C(=O)O)C1
N
CO[C@@H](C)[C@](O)(C(=O)OC1=CCN2CC[C@H](O)[C@H]12)C(C)C
N
CC[C@H]1[C@@H]2C[C@@H]3[C@@H]4N(C)c5ccccc5[C@@]45C[C@@H]([C@H]2[C@@H]5O)N3[C@@H]1O
N
C[C@H]1CC[C@]2(NC1)O[C@@H]1C[C@@H]3[C@@H]4CC=C5C[C@H](O)CC[C@@]5(C)[C@H]4CC[C@@]3(C)[C@H]1[C@@H]2C
N

Any idea what this test logged for `COc1ccc(C[C@@H]2NC[C@H](O)[C@H]2OC(C)=O)cc1` ? N

Now the same for `COc1cc2c(cc1OC)-c1c(OC)c(OC)c(CO)c3c1[C@H](C2)N(C)CC3` N

Now the same for `O=NN(Cc1ccc(Cl)cc1)[C@@H](C(=O)O)c1ccccc1` Y

Now the same for `c1ccc(CN2CCC3(CCc4ccccc43)CC2)cc1` Y

Now the same for `O=c1cccc2n1C[C@H]1C[C@@H]2CN(CCO)C1` N

Now the same for `C=C[C@@H]1CN2CC[C@H]1C[C@H]2[C@@H](O)c1ccnc2ccccc12` N

Now the same for `c1cc2c(cc1[C@H]1OC[C@H]3[C@@H]1CO[C@H]3c1ccc3c(c1)OCO3)OCO2` Y

Now the same for `CCN1C[C@@]2(COC)[C@H](O)C[C@H](OC)[C@@]34[C@@H]5C[C@@]6(O)[C@H](OC(=O)c7ccccc7)[C@H]5[C@@](OC(C)=O)([C@H]([C@@H](OC)[C@H]23)[C@H]14)[C@H](O)[C@@H]6OC` N

Now the same for `C[C@]1(C(=O)O)[C@@H]2CC[C@@H](O2)[C@@]1(C)C(=O)O` N

Now the same for `CC[C@]1(O)C(=O)OCc2c1cc1n(c2=O)Cc2cc3ccccc3nc2-1` N

Now the same for `O=[N+]([O-])c1ccc(S(=O)(=O)Cc2ccccc2)c([N+](=O)[O-])c1` Y

Now the same for `CC(=O)[C@@H]1CC[C@@H]2[C@@H]3CCC4=CC(=O)CC[C@@]4(C)[C@H]3CC[C@]21C` Y

Now the same for `C[C@@H](Cc1cccc(C(F)(F)F)c1)NCCCc1ccccc1` Y

Now the same for `O=CN1C[C@H]2C[C@@H](C1)c1cccc(=O)n1C2` N
